Values were extracted from patent US11999728B2.

# testSummary: Pharmacokinetic Determination (Mouse PK)
# Format: in vivo, female CD-1 mice
# details: female, CD-1, plasma, PO, 10.0 mg/kg
Entries and their measured Tmax follow.
Reply with the number, then its unit.

Here's what some known entries look like.
1) C[C@@H]1Cc2c([nH]c3ccccc23)[C@@H](c2c(F)cc(O[C@@H]3CCN(CCCF)C3)cc2F)N1C12CC(C1)C2 (single isomer, unassigned)    1 h
2) CCCN1CC(Nc2ccc([C@@H]3c4[nH]c5ccccc5c4C[C@@H](C)N3C34CC(C3)C4)cc2)C1    2 h
3) C[C@@H]1Cc2c([nH]c3ccccc23)[C@@H](c2ccc(N[C@@H]3CN(CCCF)C[C@H]3F)cc2)N1C12CC(C1)C2    0.5 h
4) CCCN1CC(Oc2ccc([C@@H]3c4[nH]c5ccccc5c4C[C@@H](C)N3C34CC(C3)C4)cc2)C1    0.5 h
5) C[C@@H]1Cc2c([nH]c3ccccc23)[C@@H](c2ccc(NC3CN(CCCF)C3)cn2)N1C12CC(C1)C2    1 h

Reported Tmax for C[C@@H]1Cc2c(ccc3[nH]ncc23)[C@@H](c2ccc(NC3CN(CCCF)C3)cn2)N1CC(F)(F)F [AZD9833, reference compound] : what is it?
2 h

Reported Tmax for `C[C@@H]1Cc2c([nH]c3ccccc23)[C@@H](c2ccc(NC3CN(CCCF)C3)cc2)N1C12CC(C1)C2` : what is it?
1 h

----------
# Test system: MCF7
# testSummary: Breast Cancer Cell Proliferation Assay (MCF-7), Cell Titer-Glo
# Format: cell-based
# details: Homo sapiens, MCF7, 120 h, MCF7 cells, 5 days of compound exposure
endpointLabel: IC50

Reported IC50 for `C#CCN1CC(Nc2ccc([C@@H]3c4[nH]c5ccccc5c4C[C@@H](C)N3C34CC(C3)C4)nc2)C1` : what is it?
≤ 25 nM

Reported IC50 for C[C@@H]1Cc2c([nH]c3ccccc23)[C@@H](c2ccc(O[C@H]3CCN(CCCF)C3)cc2)N1C12CC(C1)C2 (single isomer, unassigned) : what is it?
≤ 25 nM

Reported IC50 for C[C@@H]1Cc2c([nH]c3ccccc23)[C@@H](c2ccc(NCCN3CCC(CF)C3)nc2)N1C12CC(C1)C2 (stereo partly drawn) : what is it?
≥ 250 nM

----------
# Test system: MCF7
# testSummary: Breast Cancer Cell Proliferation Assay (MCF-7), Cell Titer-Glo
# Assay type: cell-based
# details: Homo sapiens, MCF7, 120 h, MCF7 cells, 5 days of compound exposure
Entries and their measured IC50 follow.

1. C[C@@H]1Cc2c([nH]c3ccccc23)[C@@H](c2ccc(NC3CN(CC(C)(F)F)C3)cc2)N1C12CC(C1)C2 [Compound 88]    25 to 250 nM
2. CCCCN1C[C@@H](F)[C@H](Nc2ccc([C@@H]3c4[nH]c5ccccc5c4C[C@@H](C)N3C34CC(C3)C4)cc2)C1 [Compound 84]    ≤ 25 nM
3. C[C@@H]1Cc2c([nH]c3ccccc23)[C@@H](c2c(F)cc(NC3CN(CCCF)C3)cc2F)N1C12CC(C(N)=O)(C1)C2 (single isomer, unassigned) [Compound 76]    25 to 250 nM
4. C[C@@H]1Cc2c([nH]c3ccccc23)[C@@H](c2ccc(OC3CN(CCCF)C3)cc2)N1C12CC(CO)(C1)C2 (single isomer, unassigned) [Compound 50]    ≤ 25 nM
5. C[C@@H]1Cc2c([nH]c3ccccc23)[C@@H](c2ccc(N[C@@H]3CN(CCCF)C[C@H]3O)cc2)N1C12CC(C1)C2 (single isomer, unassigned) [Compound 80]    ≤ 25 nM

Continue with the compound presented below.
Reported IC50 for C[C@@H]1Cc2c([nH]c3ccccc23)[C@@H](c2c(F)cc(N[C@H]3CCN(CCCF)C3)cc2F)N1C12CC(CO)(C1)C2 (single isomer, unassigned) [Compound 70] : what is it?
≤ 25 nM
